- System: KRas G12D-mediated phosphorylation of ERK
- test-protocol: Inhibition of KRas G12D-mediated phosphorylation of ERK in AGS cells
- Format: cell-based
- experimental-conditions: Homo sapiens; AGS cells expressing G12D, 3 hours, phospho-ERK normalized to GAPDH
- Procedure: Cells were plated in tissue culture treated 96 well plates at a density of 40,000 cells/well and allowed to attach for 12-14 hours. Diluted compounds were then added in a final concentration of 0.5% DMSO. After 3 hours, the medium was removed, 150 μL of 4.0% formaldehyde was added and the plates incubated at room temperature for 20 minutes. […] The amount of phospho-ERK was determined using an antibody specific for the phosphorylated form of ERK and compared to the amount of GAPDH. […]
measure-name: IC50 (µM)
Write down the numeric answer in µM and omit the unit.

Below are worked cases with known answers.
Task: Entry COc1cccc2cccc(-c3ncc4c(N5C[C@H]6CC[C@@H](C5)N6)nc(OCC56CCCN5CCC6)nc4c3F)c12 needs its IC50 filled in; supply it.
Result: 2.63

Task: Entry CC(C)n1ccnc1CCOc1nc(N2C[C@H]3CC[C@@H](C2)N3)c2cnc(-c3cc(O)cc4ccccc34)c(F)c2n1 needs its IC50 filled in; supply it.
Result: 5.51

Task: Entry Oc1cc(-c2ncc3c(N4C[C@H]5CC[C@@H](C4)N5)nc(OCC45CCCN4CCC5)nc3c2F)c2c(Cl)cccc2c1 needs its IC50 filled in; supply it.
Result: 0.108

Task: Entry CN(C)CCOc1nc(N2C[C@H]3CC[C@@H](C2)N3)c2cnc(-c3cc(O)cc4ccccc34)c(F)c2n1 needs its IC50 filled in; supply it.
Result: 3.74

New cases:
Task: Entry Fc1c(-c2cccc3cccc(Cl)c23)ncc2c(N3C[C@H]4CC[C@@H](C3)N4)nc(OCC34CC(F)CN3CC(F)C4)nc12 (stereo partly drawn) needs its IC50 filled in; supply it.
Result: 5.41

Task: Entry Fc1c(-c2cccc3cccc(C4CC4)c23)ncc2c(N3C[C@H]4CC[C@@H](C3)N4)nc(OCC34CCCN3CCC4)nc12 needs its IC50 filled in; supply it.
Result: 10.4

Task: Entry Oc1cc(-c2ncc3c(N4C[C@H]5CC[C@@H](C4)N5)nc(OCCC(F)(F)F)nc3c2F)c2c(Cl)cccc2c1 needs its IC50 filled in; supply it.
Result: 7.58

Task: Entry COCCCN1CCC(Oc2nc(N3C[C@H]4CC[C@@H](C3)N4)c3cnc(-c4cc(O)cc5ccccc45)c(F)c3n2)CC1 needs its IC50 filled in; supply it.
Result: 6.65

Task: Entry Oc1cc(Cl)c(C2CC2)c(-c2ncc3c(N4C[C@H]5CC[C@@H](C4)N5)nc(OC[C@@]45CCCN4C[C@H](F)C5)nc3c2F)c1 needs its IC50 filled in; supply it.
Result: 0.007

Task: Entry CO[C@H]1CN2CCC[C@]2(COc2nc(N3CC4CCC(C3)N4)c3cnc(-c4cc(O)cc5cccc(F)c45)c(F)c3n2)C1 (stereo in doubt) needs its IC50 filled in; supply it.
Result: 0.44
